protocolDetails: Selectivity index, ratio of CC50 for human MRC5 cells to IC50 for epimastigote form of Trypanosoma cruzi Tulahuen 2
Format: functional
measuredQuantity: Ratio CC50/IC50

                                   molecule  measuredquantity  measuredvalue
0  COc1ccc(NC(=S)Nc2ccc3nc(Oc4ccc(F)cc4C(C)O)c(Cc4ccccc4)cc3c2)cc1 (stereo not drawn)   Ratio CC50/IC50          10.27
1  CC(C)(C)OC(=O)NC(C(=O)O/N=C1\c2ccccc2-c2c1c(N1CCN(c3ccccn3)CC1)nc1ccc(Br)cc21)C(C)(C)C (stereo not drawn)   Ratio CC50/IC50           4.52
2  CC(NC(=O)OC(C)(C)C)C(=O)O/N=C1\c2ccccc2-c2c1c(N1CCN(c3ccccn3)CC1)nc1ccc(Br)cc21 (stereo not drawn)   Ratio CC50/IC50           4.33
